Sourced from BindingDB's records for doi:10.3109/14756366.2013.804072

- study-system: Carbonic anhydrase 1 (Homo sapiens, UniProt P00915)
- Sequence (P00915 whole entry): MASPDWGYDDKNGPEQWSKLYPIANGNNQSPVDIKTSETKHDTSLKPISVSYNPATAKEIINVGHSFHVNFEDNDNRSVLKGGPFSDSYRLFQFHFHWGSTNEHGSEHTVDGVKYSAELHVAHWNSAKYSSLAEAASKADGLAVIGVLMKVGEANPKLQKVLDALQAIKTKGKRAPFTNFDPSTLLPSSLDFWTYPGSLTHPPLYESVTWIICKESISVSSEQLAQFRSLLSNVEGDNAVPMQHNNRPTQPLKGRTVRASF
readout-label: pKi
Formally, pKi is defined as -log10 of the concentration c, with c in mol/L.

Please indicate recorded pKi of CC1(C)[C@@H](O)C[C@H]2[C@](C)(O)[C@@H]3CCC4[C@@H](O)C3(C[C@@H](O)[C@@]21O)C[C@@]4(C)O (stereo partly specified) [Grayanotoxin III (GTX3)] measured with Carbonic anhydrase 1 (Homo sapiens, UniProt P00915).
5.10

---

- study-system: Carbonic anhydrase 6 (Homo sapiens)
- Sequence (P23280 whole entry): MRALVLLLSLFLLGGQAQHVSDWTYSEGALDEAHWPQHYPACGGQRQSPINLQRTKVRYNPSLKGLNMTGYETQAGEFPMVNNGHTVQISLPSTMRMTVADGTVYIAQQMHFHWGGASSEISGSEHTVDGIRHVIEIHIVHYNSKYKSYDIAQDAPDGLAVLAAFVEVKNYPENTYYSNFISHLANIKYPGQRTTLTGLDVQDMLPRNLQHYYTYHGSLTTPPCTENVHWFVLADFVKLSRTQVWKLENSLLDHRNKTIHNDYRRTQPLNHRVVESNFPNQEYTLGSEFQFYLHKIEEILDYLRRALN
readout-label: Ki (nM)
Give the number; nM is assumed, so skip it.

Please indicate recorded Ki of CC1(C)[C@@H](O)C[C@H]2[C@](C)(O)[C@@H]3CCC4[C@@H](O)C3(C[C@@H](O)[C@@]21O)C[C@@]4(C)O (stereo partly specified) measured with Carbonic anhydrase 6 (Homo sapiens).
860

---

- study-system: Carbonic anhydrase 2 (Homo sapiens, UniProt P00918)
readout-label: pKi
Formally, pKi is defined as -log10 of the concentration c, with c in mol/L.

Report pKi for CC1(C)[C@@H](O)C[C@H]2[C@](C)(O)[C@@H]3CCC4[C@@H](O)C3(C[C@@H](O)[C@@]21O)C[C@@]4(C)O (stereo partly specified)
5.21

---

- study-system: Carbonic anhydrase 3 (Homo sapiens, UniProt P07451)
- Sequence (P07451 whole entry): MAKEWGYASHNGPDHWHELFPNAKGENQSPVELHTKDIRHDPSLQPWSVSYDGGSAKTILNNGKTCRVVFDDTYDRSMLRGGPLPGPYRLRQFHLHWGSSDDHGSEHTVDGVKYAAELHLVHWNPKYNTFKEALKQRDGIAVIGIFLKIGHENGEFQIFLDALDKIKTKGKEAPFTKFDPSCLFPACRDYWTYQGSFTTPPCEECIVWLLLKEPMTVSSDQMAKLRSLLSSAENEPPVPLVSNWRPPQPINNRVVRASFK
readout-label: pKi
Formally, pKi is defined as -log10 of the concentration c, with c in mol/L.

Please indicate recorded pKi of CC1(C)[C@@H](O)C[C@H]2[C@](C)(O)[C@@H]3CCC4[C@@H](O)C3(C[C@@H](O)[C@@]21O)C[C@@]4(C)O (stereo partly specified) [Grayanotoxin III (GTX3)] measured with Carbonic anhydrase 3 (Homo sapiens, UniProt P07451).
6.12

---

- study-system: Carbonic anhydrase 4 (Homo sapiens, UniProt P22748)
- Sequence (P22748 whole entry): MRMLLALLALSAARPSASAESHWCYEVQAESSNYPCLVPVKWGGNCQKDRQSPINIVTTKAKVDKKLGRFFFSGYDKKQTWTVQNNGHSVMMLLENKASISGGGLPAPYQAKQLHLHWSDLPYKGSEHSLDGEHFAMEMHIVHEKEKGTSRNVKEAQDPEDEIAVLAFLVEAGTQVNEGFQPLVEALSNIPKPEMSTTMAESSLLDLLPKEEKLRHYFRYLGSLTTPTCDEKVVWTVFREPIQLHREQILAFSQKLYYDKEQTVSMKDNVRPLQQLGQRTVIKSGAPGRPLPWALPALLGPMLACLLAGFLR
readout-label: pKi
Formally, pKi is defined as -log10 of the concentration c, with c in mol/L.

Please indicate recorded pKi of CC1(C)[C@@H](O)C[C@H]2[C@](C)(O)[C@@H]3CCC4[C@@H](O)C3(C[C@@H](O)[C@@]21O)C[C@@]4(C)O (stereo partly specified) measured with Carbonic anhydrase 4 (Homo sapiens, UniProt P22748).
6.29

---

- study-system: Carbonic anhydrase 12 (Homo sapiens, UniProt O43570)
- Sequence (O43570 whole entry): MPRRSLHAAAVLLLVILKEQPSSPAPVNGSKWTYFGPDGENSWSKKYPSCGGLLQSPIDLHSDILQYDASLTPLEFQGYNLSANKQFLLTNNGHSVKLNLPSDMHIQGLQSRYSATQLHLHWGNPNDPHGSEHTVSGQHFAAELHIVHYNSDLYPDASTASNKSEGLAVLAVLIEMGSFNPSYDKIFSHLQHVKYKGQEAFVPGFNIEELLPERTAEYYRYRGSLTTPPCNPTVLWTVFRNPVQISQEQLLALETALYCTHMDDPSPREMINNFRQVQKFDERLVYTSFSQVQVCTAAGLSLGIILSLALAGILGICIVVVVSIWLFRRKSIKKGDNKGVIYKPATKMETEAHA
readout-label: pKi
Formally, pKi is defined as -log10 of the concentration c, with c in mol/L.

Please indicate recorded pKi of CC1(C)[C@@H](O)C[C@H]2[C@](C)(O)[C@@H]3CCC4[C@@H](O)C3(C[C@@H](O)[C@@]21O)C[C@@]4(C)O (stereo partly specified) measured with Carbonic anhydrase 12 (Homo sapiens, UniProt O43570).
5.67

---

- study-system: UniProt Q9Y2D0
- Sequence (Q9Y2D0 whole entry): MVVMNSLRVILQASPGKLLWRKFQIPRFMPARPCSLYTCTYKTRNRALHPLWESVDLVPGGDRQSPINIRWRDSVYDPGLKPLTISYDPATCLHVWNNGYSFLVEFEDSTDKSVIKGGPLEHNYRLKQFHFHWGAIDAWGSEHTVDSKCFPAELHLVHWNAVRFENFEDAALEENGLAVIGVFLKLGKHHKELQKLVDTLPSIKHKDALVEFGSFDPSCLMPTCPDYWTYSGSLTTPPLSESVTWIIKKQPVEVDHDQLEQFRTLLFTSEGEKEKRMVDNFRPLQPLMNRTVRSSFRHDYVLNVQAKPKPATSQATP
readout-label: Ki
Returns: string containing the numeric result and its unit.

Please indicate recorded Ki of CC1(C)[C@@H](O)C[C@H]2[C@](C)(O)[C@@H]3CCC4[C@@H](O)C3(C[C@@H](O)[C@@]21O)C[C@@]4(C)O (stereo partly specified) measured with UniProt Q9Y2D0.
740 nM

---

- study-system: Carbonic anhydrase 13 (Homo sapiens, UniProt Q8N1Q1)
- Sequence (Q8N1Q1 whole entry): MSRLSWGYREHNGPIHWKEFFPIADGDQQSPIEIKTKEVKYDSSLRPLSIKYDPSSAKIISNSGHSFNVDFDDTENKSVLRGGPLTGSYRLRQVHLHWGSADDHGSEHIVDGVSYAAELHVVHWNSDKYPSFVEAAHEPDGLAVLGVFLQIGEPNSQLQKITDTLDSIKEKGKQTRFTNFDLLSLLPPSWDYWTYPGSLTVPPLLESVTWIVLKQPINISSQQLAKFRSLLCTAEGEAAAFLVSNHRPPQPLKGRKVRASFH
readout-label: pKi
Formally, pKi is defined as -log10 of the concentration c, with c in mol/L.

Please indicate recorded pKi of CC1(C)[C@@H](O)C[C@H]2[C@](C)(O)[C@@H]3CCC4[C@@H](O)C3(C[C@@H](O)[C@@]21O)C[C@@]4(C)O (stereo partly specified) measured with Carbonic anhydrase 13 (Homo sapiens, UniProt Q8N1Q1).
6.16

---

- study-system: Carbonic anhydrase 5A, mitochondrial (Homo sapiens, UniProt P35218)
- Sequence (P35218 whole entry): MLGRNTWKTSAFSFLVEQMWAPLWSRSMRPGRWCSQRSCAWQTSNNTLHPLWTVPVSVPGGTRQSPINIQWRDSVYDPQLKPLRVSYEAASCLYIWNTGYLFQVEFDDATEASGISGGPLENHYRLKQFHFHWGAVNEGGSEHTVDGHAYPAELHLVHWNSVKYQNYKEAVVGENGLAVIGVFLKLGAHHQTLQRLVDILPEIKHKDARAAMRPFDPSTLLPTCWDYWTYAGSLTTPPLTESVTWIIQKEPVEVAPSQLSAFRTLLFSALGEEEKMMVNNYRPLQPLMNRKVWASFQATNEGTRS
readout-label: pKi
Formally, pKi is defined as -log10 of the concentration c, with c in mol/L.

Report pKi for CC1(C)[C@@H](O)C[C@H]2[C@](C)(O)[C@@H]3CCC4[C@@H](O)C3(C[C@@H](O)[C@@]21O)C[C@@]4(C)O (stereo partly specified) [Grayanotoxin III (GTX3)]
5.94

---

The reader will find pKi measurements below, all made with Carbonic anhydrase 14 (Homo sapiens, UniProt Q9ULX7).
Sequence (Q9ULX7 whole entry): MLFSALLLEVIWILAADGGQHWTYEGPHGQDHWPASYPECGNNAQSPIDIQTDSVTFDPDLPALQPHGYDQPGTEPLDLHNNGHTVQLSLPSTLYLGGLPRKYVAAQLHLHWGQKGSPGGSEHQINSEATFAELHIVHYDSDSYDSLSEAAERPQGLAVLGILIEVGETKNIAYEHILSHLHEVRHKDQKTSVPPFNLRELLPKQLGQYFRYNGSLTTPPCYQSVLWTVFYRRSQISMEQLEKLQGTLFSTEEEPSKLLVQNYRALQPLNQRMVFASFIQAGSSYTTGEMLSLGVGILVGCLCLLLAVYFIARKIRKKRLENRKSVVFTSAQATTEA
Formally, pKi is defined as -log10 of the concentration c, with c in mol/L.

NS(=O)(=O)c1cc(Cl)c(Cl)c(S(N)(=O)=O)c1 [Dichlorophenamide, DCP] : 6.47

Report pKi for CC1(C)[C@@H](O)C[C@H]2[C@](C)(O)[C@@H]3CCC4[C@@H](O)C3(C[C@@H](O)[C@@]21O)C[C@@]4(C)O (some centres not stated) [Grayanotoxin III (GTX3)]
5.83
